biological target: SRMS (human); test: radiometric filter-binding kinase assay, Kinase HotSpot; conditions: compound 0.5 µM; ATP 10 µM
residual activity values for the compounds below.
Reply with just the number (in %).

According to the records, this compound O=C1C(Cl)=C(N2C(=O)CCC2=O)C(=O)c2ccccc21 displays residual activity of 108

get_value(item= CS(=O)(=O)CCNCc1ccc(-c2ccc3ncnc(Nc4ccc(OCc5cccc(F)c5)c(Cl)c4)c3c2)o1 , readout=residual activity) returns 97.9

residual activity for Ic1cccc(CSc2nnc(-c3ccncc3)o2)c1 is 93.4

----------
target: IRAK1 (human); assay: radiometric filter-binding kinase assay, Kinase HotSpot; conditions: compound 0.5 µM; ATP 10 µM
recorded metric: residual activity (%)
Express it in %; write the number only.

Solved entries (count: 3):
| smiles record | value observed |
| --- | --- |
| Fc1ccc(-c2nc3n(c2-c2ccncc2)CCS3)cc1 | 125 |
| CS(=O)(=O)CCNCc1ccc(-c2ccc3ncnc(Nc4ccc(OCc5cccc(F)c5)c(Cl)c4)c3c2)o1 | 98.8 |
| O=C1NC(=O)c2c1c1c3ccccc3[nH]c1n1cncc21 | 83.1 |

# residual activity (compound: COc1ccc(Cl)cc1NC(=O)Nc1cc(C)nc2ccccc12 ) is 91.2

Reported residual activity of COc1cc(Nc2c(C#N)cnc3cc(OCCCN4CCN(C)CC4)c(OC)cc23)c(Cl)cc1Cl : 91.3

The reported value for O=C1C(Cl)=C(N2C(=O)CCC2=O)C(=O)c2ccccc21 in terms of residual activity is 101

Form field residual activity, entry O=C1c2ccccc2-c2nc3nnnn3nc21 : 77.6

Looking up COc1cc2ncnc(Nc3ccc(Oc4ccccc4)cc3)c2cc1OC , I see its residual activity listed as 122

c1ccc2c(-c3ccncc3)c[nH]c2c1 has a reported residual activity of 127

The measured residual activity associated with COc1ccc2c(c1)/C(=C/c1cnc[nH]1)C(O)=N2 reads 101

Notebook: CCCCc1c(-c2ccc(OC)cc2)[nH]c2nccnc12 , residual activity read as 64.3

Kindly note the recorded residual activity for CC(C)(C)c1cc(C=C(C#N)C#N)cc(Br)c1O , which is 105

Sure, the documented residual activity for N#C/C(=C\c1ccc(O)c(O)c1)C(=O)NCc1ccccc1 is 154

The recorded residual activity for COc1ccc(C(=O)Nc2sc3c(c2C(N)=O)CCCC3)cc1OC is 79.8

Lab note: Cc1nc(-c2ccccc2)c(-c2ccncc2)o1 gave residual activity of 124

Query CO[C@@H]1[C@H](N(C)C(=O)c2ccccc2)C[C@H]2O[C@]1(C)n1c3ccccc3c3c4c(c5c6ccccc6n2c5c31)C(=O)NC4 yields residual activity of 86.3

----------
biological target: CAMK1D (human) (UniProt Q8IU85); test: radiometric filter-binding kinase assay, Kinase HotSpot; conditions: compound 0.5 µM; ATP 10 µM
Sequence (Q8IU85 whole entry, looked up): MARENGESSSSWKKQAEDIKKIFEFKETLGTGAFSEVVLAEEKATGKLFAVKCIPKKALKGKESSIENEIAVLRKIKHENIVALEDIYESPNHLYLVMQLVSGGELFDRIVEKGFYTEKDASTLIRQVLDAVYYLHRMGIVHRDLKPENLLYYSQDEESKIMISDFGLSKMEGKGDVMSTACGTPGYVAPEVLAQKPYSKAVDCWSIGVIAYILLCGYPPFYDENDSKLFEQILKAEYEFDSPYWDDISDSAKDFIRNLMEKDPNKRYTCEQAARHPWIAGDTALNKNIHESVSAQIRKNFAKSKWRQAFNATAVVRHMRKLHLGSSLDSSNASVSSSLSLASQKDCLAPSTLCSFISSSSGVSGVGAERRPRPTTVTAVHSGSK
recorded metric: residual activity (%)
Kindly provide the numeric value in % only, without the unit symbol.

Known residual activity results, listed for orientation:
| smiles record | residual activity [%] |
| --- | --- |
| COc1ccc2c(c1)/C(=C/c1cnc[nH]1)C(O)=N2 | 98.3 |
| O=C(c1cc2cc(O)ccc2[nH]1)c1cc2cc(O)ccc2[nH]1 | 91.5 |
| Cc1nc(-c2ccccc2)c(-c2ccncc2)o1 | 93.9 |
| CN(C)CCCn1cc(C2=C(c3c[nH]c4ccccc34)C(=O)NC2=O)c2ccccc21 | 68 |
| COc1cc2ncnc(Nc3ccc(Oc4ccccc4)cc3)c2cc1OC | 99.7 |
| N#C/C(=C\c1ccc(O)c(O)c1)C(=O)NCc1ccccc1 | 96.4 |
| NC(=O)c1cccc(-c2cc(Nc3ccc(OC(F)(F)F)cc3)ncn2)c1 | 105 |
| CCCCc1c(-c2ccc(OC)cc2)[nH]c2nccnc12 | 97.9 |
| COc1ccc(C(=O)Nc2sc3c(c2C(N)=O)CCCC3)cc1OC | 93.8 |
| N#Cc1c[nH]c2c[nH]/c(=N\Cc3cccnc3)cc2/c1=N\c1ccc(F)c(Cl)c1 | 97.8 |

Memo: Cc1cccc(-c2nc(C(C)(C)C)[nH]c2-c2ccc3c(c2)OCO3)n1 , reported residual activity: 102

So, O=C1NC(=O)c2c1c1c3ccccc3[nH]c1n1cncc21 ? Its residual activity was 91.9

For record CS(=O)(=O)CCNCc1ccc(-c2ccc3ncnc(Nc4ccc(OCc5cccc(F)c5)c(Cl)c4)c3c2)o1 the listed residual activity is 104

Data provenance is the kinase profiling compilation of Christmann-Franck et al. (2016).
